System: Human immunodeficiency virus 1
test_description: Antiviral activity against wild type HIV-1 NL4-3 infected in MT-2 cells assessed as inhibition of viral replication in presence of 40% human serum and 27 mg/ml human serum albumin by luciferase reporter gene based multicycle replication assay
Assay type: functional, organism-based
test_settings: Human immunodeficiency virus 1, NL4-3, MT2
pEC50: −log10 of the molar value.
Values of pEC50 greater than or equal to 8 map to Satisfied; values below map to Not satisfied.

Look over these answered cases.
>  <given_smiles>
C=C(C)[C@@H]1CC[C@]2(NCCN3CCS(=O)(=O)CC3)CC[C@]3(C)[C@H](CC[C@@H]4[C@@]5(C)CC=C(C6=CC[C@@H](C(=O)O)CC6)C(C)(C)[C@@H]5CC[C@]43C)[C@@H]12

>  <qualitative_label>
Satisfied

$$$$
>  <given_smiles>
C=C(C)[C@@H]1CC[C@]2(C(=O)O)CC[C@]3(C)[C@H](CC[C@@H]4[C@@]5(C)CC=C(c6ccc(C(=O)O)cc6)C(C)(C)[C@@H]5CC[C@]43C)[C@@H]12

>  <qualitative_label>
Not satisfied

$$$$
>  <given_smiles>
C=C(C)[C@@H]1CC[C@]2(NCCN3CCC(S(C)(=O)=O)CC3)CC[C@]3(C)[C@H](CC[C@@H]4[C@@]5(C)CC=C(C6=CC[C@@H](C(=O)O)CC6)C(C)(C)[C@@H]5CC[C@]43C)[C@@H]12

>  <qualitative_label>
Satisfied

$$$$

Qu. State whether the measured pEC50 reaches 8, counting equality as reaching it, for "C=C(C)[C@@H]1CC[C@]2(NCCN3CCS(=O)(=O)CC3)CC[C@]3(C)[C@H](CC[C@@H]4[C@@]5(C)CC=C(C6=CC[C@H](C(=O)O)CC6)C(C)(C)[C@@H]5CC[C@]43C)[C@@H]12"
Ans. Satisfied

Sourced from ChEMBL document CHEMBL4706674
